Entry source: patent US20200339690A1

Biological target: human LILRB2 (human) (UniProt Q8N423)
Assay: BLI Octet sandwich binning; competitor (antibody #1 on sensor) J-17
Measure: response of antibody #2

[[record]]
binder = "J-11 (antibody, human IgG4 S228P, kappa, V domains shown) VH: QVQLQQSGAELMKPGASVKLSCKATGYILTGYWIEWVKQRPGHGLEWIGEILPGSGSTNYNENFKGKATFTADTSSNTAYMQLSSLTTEDSAIYYCARAVLGYFDYWGQGTTLTVSS VL: DIVMTQSHKFMSTSVGDRVSITCKASQDVSTAVAWYQQKPGQSPKLLIYWASTRHTGVPDRFTGSGSGTDYTLTISSVQAEDLALYYCHQHYSTYTFGGGTKLEIKR"
recorded_measurement = -0.27

[[record]]
binder = "J-04 (antibody, human IgG4 S228P, kappa, V domains shown) VH: QVQLQQSGAELVRPGASVTLSCKASGYTFADYEIHWVKQTPVHGLEWIGAIDPETGGTAYNQKFKGKAILTADKSSSTAYMELRSLTSEDSAVYYCTRYYDYDDAMDYWGQGTSVTVSS VL: QIVLTQSPAIMSASPGEKVTMTCSASSSVSFMHWYQQKSGTSPKRWIYGTSKLASGVPARFSGSGSGTSYSLTISSMEAEDAATYYCQQWNGNPFTFGSGTKLETKR"
recorded_measurement = 0.46

[[record]]
binder = "J-17 (antibody, human IgG4 S228P, kappa, V domains shown) VH: QIQLVQSGPELKKPGETVKISCKASGYTFTTYGLSWVKQTPGKGLKWMGWINTYSGVPTYTDDFKGRFAFSLETSASTAYLQINNLKNEDTATYFCARPYDFDQVGFAYWGQGTLVTVSA VL: SIVMTQTPKFLLVSAGDRVSITCKASQTVSSDVAWYQQKAGQSPKLLIYYASNRYTGVPDRFTGSGYGTDFTFTISTVQAEDLAVYFCQQDYSSPFTFGGGSKLEIKR"
recorded_measurement = -0.11

